assay: NCI Yeast Anticancer Drug Screen. Data for the mec2-1 strain (AID 157); details: S. cerevisiae mec2-1 strain, at 50.0 µM, stronger effect = higher value
This is part of a sample that, as a whole, favours compounds with a hit. Of some 79,000 tested, about 15% had one in any assay. Activity calls are given as the source filed them. No stated cut-off is given here; in the data, active means growth inhibition above about 70%; inactive means the rest. Where a SMILES comes first, the peptide text is derived from it. The star is where a group is joined. OtBu = CC(C)(C)O*
I'd appreciate it if you could supply growth inhibition values for the items below.

Solved entries:
1. CSc1nc(NC2OC(CO)C(O)C(O)C2O)c(C=O)c(=O)n1C (centres undefined) ... -0.8% (inactive)
2. C/C(=C\c1ccc(F)cc1)C(=O)O ... -0.95% (inactive)
3. CCCCCCCCCCCCCC#N ... -3.55% (inactive)
4. O=C(O)/C=C/c1ccccc1Br ... 3.5% (inactive)
5. O=C(O)c1cc(Cl)ccc1[N+](=O)[O-] ... -11% (inactive)
6. O=C(O)CNc1ccc(C(=O)O)cc1 ... -10.1% (inactive)
7. NCCCCCC(CCN)SCC1OC(n2cnc3c(N)ncnc32)C(O)C1O (centres undefined) ... -2.45% (inactive)
8. NC(=O)C(O)(c1ccc(Br)cc1)C(Cl)Cl (centres undefined) ... 3.05% (inactive)
9. CC(C)CC(NC(=O)C1CCCN1)C(=O)NC(CC(C)C)C(=O)OC(C)(C)C (stereo not drawn) (H-Pro-Leu-Leu-OtBu; configuration not given here) ... 26.6% (inactive)
10. CC(C)(CCC(=O)O)CCC(=O)O ... 17.6% (inactive)

Batch of 2 compounds: report growth inhibition for each.
1. CC(O)CNC(=O)Nc1ccccc1 (centres undefined)
2. COc1cccc(/C=C2\CCC(C)(CN(C)C)C2=O)c1 (centres undefined)

(A)
-26.8% (inactive)
9.1% (inactive)

Batch of 7 compounds: report growth inhibition for each.
1. NC(=O)c1ccccc1C(N)=O
2. NC(=O)NC(NC(=O)NC(NC(N)=O)c1ccco1)c1ccco1 (centres undefined)
3. O=C(O)/C=C/C(=O)Nc1cccc(C(F)(F)F)c1
4. C/C(CC(=O)Nc1ccc(Cc2ccc(Cl)cc2)cc1)=N/Nc1ccc([N+](=O)[O-])cc1[N+](=O)[O-]
5. CC(=O)C1=C(C)Cn2c(=O)c3ccccc3c(=O)n2C1
6. CCC12CC(=O)CCC1CCc1ccc(OC)c(OC)c12 (centres undefined)
7. CN(CC(C)(C)C(O)c1ccccc1)C(=O)c1ccccc1 (centres undefined)

(A)
1. -10.6% (inactive)
2. 15.4% (inactive)
3. 0.35% (inactive)
4. -0.25% (inactive)
5. -18.5% (inactive)
6. 15.9% (inactive)
7. -5.7% (inactive)

Batch of 5 compounds: report growth inhibition for each.
1. CC1=NN(C(=O)c2ccc(Cl)cc2)C(=O)/C1=C/c1ccc(Cl)cc1
2. CS/C(=N/S(=O)(=O)c1ccccc1)NNC(=S)Nc1ccc(C(C)C)cc1
3. NC(=O)/C=C/c1cccnc1
4. CC(=O)OCC(NC(=O)C(N)CC(=O)O)C(=O)NCC(=O)Oc1ccc([N+](=O)[O-])cc1 (centres undefined)
5. CCCNCC(O)c1cc(C(F)(F)F)nc2c(C(F)(F)F)cccc12 (centres undefined)

(A)
-47.4% (inactive)
-12.6% (inactive)
-0.65% (inactive)
15.7% (inactive)
-0.15% (inactive)
